tested.target: Apoptotic protease-activating factor 1 (Homo sapiens, UniProt O14727)
Sequence (O14727 whole entry): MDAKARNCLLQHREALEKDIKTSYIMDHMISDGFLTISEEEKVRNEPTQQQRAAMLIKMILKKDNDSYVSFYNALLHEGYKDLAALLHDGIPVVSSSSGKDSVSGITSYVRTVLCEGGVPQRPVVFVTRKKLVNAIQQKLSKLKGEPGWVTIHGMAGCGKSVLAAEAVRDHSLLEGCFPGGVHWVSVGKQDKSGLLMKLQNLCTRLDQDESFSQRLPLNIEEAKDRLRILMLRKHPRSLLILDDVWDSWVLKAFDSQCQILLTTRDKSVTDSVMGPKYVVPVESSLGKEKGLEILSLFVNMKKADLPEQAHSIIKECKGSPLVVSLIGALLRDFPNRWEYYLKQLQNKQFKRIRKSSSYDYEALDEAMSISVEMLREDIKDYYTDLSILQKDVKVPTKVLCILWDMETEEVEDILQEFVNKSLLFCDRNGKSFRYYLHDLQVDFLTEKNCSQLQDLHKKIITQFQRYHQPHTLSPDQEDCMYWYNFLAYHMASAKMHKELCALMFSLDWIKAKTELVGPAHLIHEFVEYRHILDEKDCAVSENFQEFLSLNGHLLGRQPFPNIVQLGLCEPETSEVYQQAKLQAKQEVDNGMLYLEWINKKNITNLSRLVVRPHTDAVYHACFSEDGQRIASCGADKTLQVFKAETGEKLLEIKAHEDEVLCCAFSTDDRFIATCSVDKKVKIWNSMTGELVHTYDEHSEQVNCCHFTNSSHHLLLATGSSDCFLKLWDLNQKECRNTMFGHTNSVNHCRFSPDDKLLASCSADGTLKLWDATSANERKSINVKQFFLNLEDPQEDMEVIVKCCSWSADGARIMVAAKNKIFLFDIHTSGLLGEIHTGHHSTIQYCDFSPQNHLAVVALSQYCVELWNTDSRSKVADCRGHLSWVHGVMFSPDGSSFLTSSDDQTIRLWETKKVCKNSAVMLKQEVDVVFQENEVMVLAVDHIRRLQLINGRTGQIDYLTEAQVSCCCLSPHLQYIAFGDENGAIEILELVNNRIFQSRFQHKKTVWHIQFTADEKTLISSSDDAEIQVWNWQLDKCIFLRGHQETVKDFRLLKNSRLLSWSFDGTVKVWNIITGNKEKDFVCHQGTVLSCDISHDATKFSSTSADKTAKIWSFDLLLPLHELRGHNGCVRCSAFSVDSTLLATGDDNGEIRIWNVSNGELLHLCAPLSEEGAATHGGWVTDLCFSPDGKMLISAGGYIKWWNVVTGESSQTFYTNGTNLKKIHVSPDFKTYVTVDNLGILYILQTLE
Type: functional
The source made the active and inactive calls.
readout.name: IC50

- C=CCn1c(NC(=O)c2ccccc2Cl)c(C#N)c2nc3ccccc3nc21: 13.7 µM (active)
- Cc1nn2c(-c3ccncc3)nnc2c2ccccc12: 5.15 µM (active)
- CCOC(=O)c1ccc(Nc2cc3ccccc3c(O)n2)cc1: 8.78 µM (active)
- COc1ccc(NC2=C(NCCO)C(=O)c3ccccc3C2=O)cc1: 29.4 µM (active)

###

As an illustration, consider measured AC50 for compounds on UniProt P10635.
Sequence (P10635 whole entry): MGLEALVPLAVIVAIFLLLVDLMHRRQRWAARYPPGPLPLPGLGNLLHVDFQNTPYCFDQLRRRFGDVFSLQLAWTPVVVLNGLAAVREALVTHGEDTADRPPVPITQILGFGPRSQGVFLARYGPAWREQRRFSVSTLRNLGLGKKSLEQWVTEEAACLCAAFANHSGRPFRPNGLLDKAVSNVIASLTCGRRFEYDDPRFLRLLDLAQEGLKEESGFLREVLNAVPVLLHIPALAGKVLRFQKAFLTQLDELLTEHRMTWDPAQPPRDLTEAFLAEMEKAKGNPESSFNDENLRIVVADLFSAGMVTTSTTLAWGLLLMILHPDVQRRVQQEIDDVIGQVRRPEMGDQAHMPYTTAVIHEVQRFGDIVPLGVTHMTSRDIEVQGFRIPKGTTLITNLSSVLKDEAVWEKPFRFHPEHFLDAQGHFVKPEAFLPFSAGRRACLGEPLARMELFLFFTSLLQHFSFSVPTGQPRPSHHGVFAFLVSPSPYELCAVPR
readout.name: AC50

- O=C1COC(c2ccccc2O)=NN1CCCN1CCCC1: 3.16 µM (inconclusive)
- O=C(c1cccc(F)c1)N1CCC[C@@]2(CCN(Cc3nccs3)C2)C1: 20 µM (inconclusive)
- CN1CCN(c2ncc3ncc(=O)n(CCc4ccccc4)c3n2)CC1: 20 µM (inconclusive)
- Cc1cnc(CNc2nc(-c3ccccc3C)nc3ccccc23)cn1: 39.8 µM (inconclusive)
- NC(=O)/C(=N\OC(=O)c1ccco1)c1nc(-c2ccc(Br)cc2)cs1: 25.1 µM (inconclusive)
- Cc1cc(=O)oc(C)c1C(=O)NCCCN1CCN(c2ccc(F)cc2)CC1: 15.8 µM (inconclusive)
- COc1ccc([C@@H](C)c2cc3c(cc2O)OCO3)cc1: 3.98 µM (inconclusive)
- Nc1nn2c(O)cc(-c3ccccc3)nc2c1N=Nc1ccccc1: 28.2 µM (inconclusive)
- COc1ccccc1CNc1ncncc1-c1cccnc1: 20 µM (inconclusive)
- Cc1ccnc(NC(=O)c2cccc(NC(=O)COc3ccccc3)c2)c1: 17.8 µM (inconclusive)
- CCOC(=O)c1c(NC(=O)CSc2nnnn2C)sc(C)c1C: 25.1 µM (inconclusive)
